Provenance of the data: patent US20110053836A1

Reported RLU is given for each of the following substances.
- Tested on: M. tuberculosis H37Rv
- Type: cell-based, Mycobacterium tuberculosis
- conditions: peptide 6.25 micrograms/ml; buffer control 75380
The response must contain the number and no unit.

Record excerpt, results attached:
substance | testedSystem | recordedValue
SEQ ID NO: 18: plectasin variant, substitutions D9S + Q14R + K26R compared to SEQ ID NO: 2 (GFGCNGPWSEDDMRCHNHCKSIKGYRGGYCAKGGFVCKCY) | M. tuberculosis H37Rv | 7702
SEQ ID NO: 20: plectasin variant, substitutions D9S + M13L + Q14K + V36L compared to SEQ ID NO: 2 (GFGCNGPWSEDDLKCHNHCKSIKGYKGGYCAKGGFLCKCY) | M. tuberculosis H37Rv | 5355

Return reported RLU; argument: SEQ ID NO: 19: plectasin variant, substitutions D9S + Q14K + K26R compared to SEQ ID NO: 2 (GFGCNGPWSEDDMKCHNHCKSIKGYRGGYCAKGGFVCKCY)
7630

Return reported RLU; argument: SEQ ID NO: 17: plectasin variant, substitutions D9S + M13L + Q14R + K26R compared to SEQ ID NO: 2 (GFGCNGPWSEDDLRCHNHCKSIKGYRGGYCAKGGFVCKCY)
8321

###

Reported RLU is given for each of the following substances.
- System: M. tuberculosis H37Rv
- Format: cell-based, Mycobacterium tuberculosis
- conditions: peptide 25 micrograms/ml; buffer control 53503

Record excerpt, results attached:
substance | testedSystem | recordedValue
SEQ ID NO: 3: plectasin variant, substitutions Q14K + K26R compared to SEQ ID NO: 2 (GFGCNGPWDEDDMKCHNHCKSIKGYRGGYCAKGGFVCKCY) | M. tuberculosis H37Rv | 2310
SEQ ID NO: 9: plectasin variant, substitutions N5R + M13V compared to SEQ ID NO: 2 (GFGCRGPWDEDDVQCHNHCKSIKGYKGGYCAKGGFVCKCY) | M. tuberculosis H37Rv | 1685

We now examine a further substance.
Return reported RLU; argument: SEQ ID NO: 11: plectasin variant, substitutions Q14R + K26R compared to SEQ ID NO: 2 (GFGCNGPWDEDDMRCHNHCKSIKGYRGGYCAKGGFVCKCY)
3604

###

- System: M. tuberculosis H37Rv
- Type: cell-based, Mycobacterium tuberculosis
- conditions: concentration that reduces RLU by 90% (1 log); 96 hours
Reported MIC is given for each of the following substances.
The reply should be a number in micrograms/ml, with the unit left off.

Record excerpt, results attached:
substance | units | MIC
SEQ ID NO: 20: plectasin variant, substitutions D9S + M13L + Q14K + V36L compared to SEQ ID NO: 2 (GFGCNGPWSEDDLKCHNHCKSIKGYKGGYCAKGGFLCKCY) | micrograms/ml | 6.25
SEQ ID NO: 9: plectasin variant, substitutions N5R + M13V compared to SEQ ID NO: 2 (GFGCRGPWDEDDVQCHNHCKSIKGYKGGYCAKGGFVCKCY) | micrograms/ml | 6.25

We now examine a further substance.
Return reported MIC; argument: SEQ ID NO: 7: plectasin variant, substitutions Q14R + K20R compared to SEQ ID NO: 2 (GFGCNGPWDEDDMRCHNHCRSIKGYKGGYCAKGGFVCKCY)
6.25

###

Reported RLU is given for each of the following substances.
- Tested on: M. tuberculosis H37Rv
- Format: cell-based, Mycobacterium tuberculosis
- conditions: peptide 25 micrograms/ml; buffer control 53503
The response must contain the number and no unit.

substance | recordedValue
SEQ ID NO: 6: plectasin variant, substitutions Q14R + K26R + K38R compared to SEQ ID NO: 2 (GFGCNGPWDEDDMRCHNHCKSIKGYRGGYCAKGGFVCRCY) | 4483

Return reported RLU; argument: SEQ ID NO: 7: plectasin variant, substitutions Q14R + K20R compared to SEQ ID NO: 2 (GFGCNGPWDEDDMRCHNHCRSIKGYKGGYCAKGGFVCKCY)
1339

Return reported RLU; argument: SEQ ID NO: 8: plectasin variant, substitution Q14L compared to SEQ ID NO: 2 (GFGCNGPWDEDDMLCHNHCKSIKGYKGGYCAKGGFVCKCY)
2145

Return reported RLU; argument: SEQ ID NO: 5: plectasin variant, substitution Q14F compared to SEQ ID NO: 2 (GFGCNGPWDEDDMFCHNHCKSIKGYKGGYCAKGGFVCKCY)
1567

Return reported RLU; argument: SEQ ID NO: 13: plectasin variant, substitutions N5G + M13L compared to SEQ ID NO: 2 (GFGCGGPWDEDDLQCHNHCKSIKGYKGGYCAKGGFVCKCY)
2576

Return reported RLU; argument: SEQ ID NO: 12: plectasin variant, substitutions N5S + D9S + M13L + Q14R + N17V + A31S compared to SEQ ID NO: 2 (GFGCSGPWSEDDLRCHVHCKSIKGYKGGYCSKGGFVCKCY)
3901

###

- Test system: M. tuberculosis H37Rv
- Type: cell-based, Mycobacterium tuberculosis
- conditions: peptide 25 micrograms/ml; buffer control 53503
parameter: RLU
The response must contain the number and no unit.

Return reported RLU; argument: SEQ ID NO: 15: plectasin variant, substitutions D9N + M13L + Q14R compared to SEQ ID NO: 2 (GFGCNGPWNEDDLRCHNHCKSIKGYKGGYCAKGGFVCKCY)
4165

###

- System: M. tuberculosis H37Rv
- Format: cell-based, Mycobacterium tuberculosis
- conditions: peptide 6.25 micrograms/ml; RLU relative to buffer control
Reported Fold of reduction is given for each of the following substances.
The response must contain the number and no unit.

Record excerpt, results attached:
substance | recordedValue
SEQ ID NO: 20: plectasin variant, substitutions D9S + M13L + Q14K + V36L compared to SEQ ID NO: 2 (GFGCNGPWSEDDLKCHNHCKSIKGYKGGYCAKGGFLCKCY) | 14.1
SEQ ID NO: 18: plectasin variant, substitutions D9S + Q14R + K26R compared to SEQ ID NO: 2 (GFGCNGPWSEDDMRCHNHCKSIKGYRGGYCAKGGFVCKCY) | 9.8
SEQ ID NO: 17: plectasin variant, substitutions D9S + M13L + Q14R + K26R compared to SEQ ID NO: 2 (GFGCNGPWSEDDLRCHNHCKSIKGYRGGYCAKGGFVCKCY) | 9.1

Provide the documented Fold of reduction with M. tuberculosis H37Rv as the system for SEQ ID NO: 19: plectasin variant, substitutions D9S + Q14K + K26R compared to SEQ ID NO: 2 (GFGCNGPWSEDDMKCHNHCKSIKGYRGGYCAKGGFVCKCY)
9.9

###

- System: M. tuberculosis H37Rv
- Format: cell-based, Mycobacterium tuberculosis
- conditions: concentration that reduces RLU by 90% (1 log); 96 hours
parameter: MIC

Record excerpt, results attached:
substance | recordedValue
SEQ ID NO: 17: plectasin variant, substitutions D9S + M13L + Q14R + K26R compared to SEQ ID NO: 2 (GFGCNGPWSEDDLRCHNHCKSIKGYRGGYCAKGGFVCKCY) | ~6.25 micrograms/ml
SEQ ID NO: 19: plectasin variant, substitutions D9S + Q14K + K26R compared to SEQ ID NO: 2 (GFGCNGPWSEDDMKCHNHCKSIKGYRGGYCAKGGFVCKCY) | ~6.25 micrograms/ml

Return reported MIC; argument: SEQ ID NO: 18: plectasin variant, substitutions D9S + Q14R + K26R compared to SEQ ID NO: 2 (GFGCNGPWSEDDMRCHNHCKSIKGYRGGYCAKGGFVCKCY)
~6.25 micrograms/ml

###

- System: M. tuberculosis H37Rv
- Type: cell-based, Mycobacterium tuberculosis
- conditions: peptide 25 micrograms/ml; buffer control 53503
parameter: RLU
The response must contain the number and no unit.

substance | RLU
SEQ ID NO: 16: plectasin variant, substitutions D9G + Q14R + K23R compared to SEQ ID NO: 2 (GFGCNGPWGEDDMRCHNHCKSIRGYKGGYCAKGGFVCKCY) | 4495

Return reported RLU; argument: SEQ ID NO: 4: plectasin variant, substitution K26R compared to SEQ ID NO: 2 (GFGCNGPWDEDDMQCHNHCKSIKGYRGGYCAKGGFVCKCY)
1903

Return reported RLU; argument: SEQ ID NO: 14: plectasin variant, substitutions N5G + D9S + M13L + N17Q + A31T compared to SEQ ID NO: 2 (GFGCGGPWSEDDLQCHQHCKSIKGYKGGYCTKGGFVCKCY)
1083

Return reported RLU; argument: SEQ ID NO: 10: plectasin variant, substitutions M13K + K38R compared to SEQ ID NO: 2 (GFGCNGPWDEDDKQCHNHCKSIKGYKGGYCAKGGFVCRCY)
1152
